Listing of entries alongside the reported Cytotoxicity (μM) against strain J774A.1.
System: J774A.1
testSummary: mammalian cytotoxicity assay
Type: cell-based
conditions: J774A.1
Express your answer in µM, writing the number without its unit.

[in] Give recorded Cytotoxicity (μM) against strain J774A.1. COC(=O)[C@H](C)C1=C([C@@]2(C)CCCC(C)(C)C2)CCC2COC(=O)C12 (stereo partly shown) [Compound 4, tetrahydromembranolide]
[out] 64.9

[in] Give recorded Cytotoxicity (μM) against strain J774A.1. COC(=O)[C@H](C)c1c([C@@]2(C)CCCC(C)(C)C2)ccc2c1C(=O)OC2 [Compound 3, membranolide]
[out] 76.8

[in] Give recorded Cytotoxicity (μM) against strain J774A.1. CC(=O)O[C@@H]1OC2OC(=O)[C@H](C)c3c([C@@]4(C)CCCC(C)(C)C4)ccc1c32 (stereo partly shown) [Compound 1, aplysulphurin]
[out] 12.3

[in] Give recorded Cytotoxicity (μM) against strain J774A.1. CC(=O)O[C@@H]1OC2OC(=O)C3=C(C)C([C@@]4(C)CCCC(C)(C)C4)CCC1C32 (stereo partly shown) [Compound 24, Darwinolide]
[out] 20.13

[in] Give recorded Cytotoxicity (μM) against strain J774A.1. CO[C@@H]1O[C@@H](OC(C)=O)c2ccc([C@@]3(C)CCCC(C)(C)C3)c([C@@H](C)C(=O)O)c21 [Compound 11, membranoid X]
[out] 62.9

[in] Give recorded Cytotoxicity (μM) against strain J774A.1. CO[C@H]1O[C@@H](OC)c2c1ccc([C@@]1(C)CCCC(C)(C)C1)c2[C@@H](C)C(=O)O [Compound 9, membranoid E]
[out] 95

[in] Give recorded Cytotoxicity (μM) against strain J774A.1. CO[C@H]1OC(=O)[C@H](C)c2c([C@@]3(C)CCCC(C)(C)C3)ccc(C=O)c21 [Compound 5, membranoid A]
[out] 54.6

* * *

System: J774A.1
testSummary: mammalian cytotoxicity assay
Type: cell-based
conditions: J774A.1
Listing of entries alongside the reported Cytotoxicity (μM) against strain J774A.1.

Below, each entry is followed by its recorded Cytotoxicity (μM) against strain J774A.1 result.
CO[C@@H]1O[C@@H](OC)c2c1ccc([C@@]1(C)CCCC(C)(C)C1)c2[C@@H](C)C(=O)O | >133 µM
C[C@H]1C(=O)O[C@@H](O)c2c(C=O)ccc([C@@]3(C)CCCC(C)(C)C3)c21 | >151 µM
CO[C@@H]1O[C@H](OC)c2c1ccc([C@@]1(C)CCCC(C)(C)C1)c2[C@@H](C)C(=O)O | >133 µM
CO[C@H]1O[C@H](OC)c2c1ccc([C@@]1(C)CCCC(C)(C)C1)c2[C@@H](C)C(=O)O | >133 µM
CC(=O)O[C@@H]1OC2OC(=O)[C@H](C)C3=C([C@@]4(C)CCCC(C)(C)C4)CCC1C32 (stereo partly drawn) [Compound 2, tetrahydroaplysulphurin] | >133 µM

Let us move to another entry and its Cytotoxicity (μM) against strain J774A.1.
[in] Give Cytotoxicity (μM) against strain J774A.1 only, for COC(=O)[C@H](C)c1c([C@@]2(C)CCCC(C)(C)C2)ccc2c1[C@H](O)OC2=O , using J774A.1 data.
[out] >139 µM
